- assay info: Oral bioavailability (0 to t) in Sprague-Dawley rat at 20 mg/kg administered for 24 hrs by LC-MS/MS analysis
- Assay type: ADME, organism-based
- setup conditions: in vivo

- compound structure string: "CC(=O)c1c(-c2nccc(NCCN3CCCC3)n2)[nH]c2ccccc12"
  bioavailability: "63%"

###

- assay info: Apparent oral clearance in Sprague-Dawley rat at 20 mg/kg, po administered for 24 hrs by LC-MS/MS analysis
- Type: ADME, organism-based
- setup conditions: in vivo
test readout: CL/F (L/h/kg)

- compound structure string: "CC(=O)c1c(-c2nccc(NCCN3CCCC3)n2)[nH]c2ccccc12"
  experimental result: 15.3
